Numbers sourced from ChEMBL document CHEMBL3102806.

As shown below, each of these compounds has a reported Activity value.
# test.name: Induction of nitric oxide release in phosphate buffer at 10^-4 M at pH 7.4 after 3 hrs by Griess colorimetric method in presence of N-acetylcysteine
# Assay type: physicochemical
# assay.conditions: pH 7.4, 3 h, 100 µM
endpoint.name: Activity (mol/mol)

molecular_string=C=CCn1c(SCC(=O)Nc2ccc(/C(C)=N/O)cc2)nnc1-c1ccc(OC)cc1 experimental_result=0.23
molecular_string=COc1cc(-c2nnc(SCC(=O)Nc3ccc(/C(C)=N/O)cc3)n2-c2ccccc2)cc(OC)c1OC experimental_result=0.16
molecular_string=CCn1c(SCC(=O)Nc2ccc(/C(C)=N/O)cc2)nnc1-c1ccccc1 experimental_result=0.2
molecular_string=COc1ccc(-c2nnc(SCC(=O)Nc3ccc(/C(C)=N/O)cc3)n2-c2ccccc2)cc1OC experimental_result=0.23
molecular_string=C=CCn1c(SCC(=O)Nc2ccc(/C(C)=N/O)cc2)nnc1-c1ccc(OC)c(OC)c1 experimental_result=0.32
molecular_string=CCn1c(SCC(=O)Nc2ccc(/C(C)=N/O)cc2)nnc1-c1cc(OC)c(OC)c(OC)c1 experimental_result=0.14
molecular_string=CCn1c(SCC(=O)Nc2ccc(/C(C)=N/O)cc2)nnc1-c1ccc(OC)cc1 experimental_result=0.24
molecular_string=C/C(=N\O)c1ccc(NC(=O)CSc2nnc(-c3ccccc3)n2-c2ccccc2)cc1 experimental_result=0.2
molecular_string=C=CCn1c(SCC(=O)Nc2ccc(/C(C)=N/O)cc2)nnc1-c1ccccc1 experimental_result=0.22
